Target: T1, 4H883-bA
T1 chain: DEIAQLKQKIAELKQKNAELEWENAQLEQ
Experiment: two-hybrid library CCNG1;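 further: natural log of median RNA to DNA barcode read ratio; higher means stronger binding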
Result type: interaction score

# example entries with known answers
INSERT INTO results (binder, value_measured) VALUES
  ('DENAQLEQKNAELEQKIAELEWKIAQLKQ [4H1446-bA]', 0.0122),
  ('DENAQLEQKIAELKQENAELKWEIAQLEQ [4H1369-bA]', -1.53),
  ('DEIAQLKQENAELEQKIAELKWKNAQLEQ [4H687-bA]', -1.57),
  ('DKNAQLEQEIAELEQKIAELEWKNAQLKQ [4H3112-bA]', 0.791),
  ('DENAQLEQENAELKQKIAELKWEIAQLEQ [4H1257-bA]', -1.18),
  ('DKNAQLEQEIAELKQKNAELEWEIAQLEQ [4H3185-bA]', -1.49);

A = DKIAQLKQEIAELEQKNAELEWEIAQLKQ [4H2610-bA]
B = DEIAQLKQEIAELEQKNAELEWKNAQLKQ [4H568-bA]
C = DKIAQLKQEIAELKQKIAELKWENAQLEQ [4H2667-bA]
Problem: Rank the 3 binders: largest interaction score first, smallest last. Note for the reader: the ranking is given by listing the labels in the order requested.
Result: B, A, C
